Exercise: state measured stoichiometry N (nanobody per TET12SN (cell:syringe)) for each of the binders provided.
- Substrate: CC protein origami tetrahedron TET12SN
- Experiment Description: ITC; nanobody in the syringe titrated into the cell with TET12SN or a tetrahedron variant (2-5 µM), CC peptide dimer (5-10 µM) or a complex preformed by a first titration; MicroCal VP-ITC, 25 °C; 20 mM sodium phosphate pH 7.0, 150 mM NaCl; independent binding sites model (SEDPHAT), errors by Monte-Carlo
The reply should be a number, written without any unit.

Asked: Provide stoichiometry N (nanobody per TET12SN (cell:syringe)) value for the following binder: nanobody Nb49 (VHH) VHH: QVQLQESGGGLVQPGGSLRLSCIASGRTFNPYGMGWFRQVPGKERTFVSGITWIGGTTYYVNSVKGRFTISRDRAKNTVYLQMNSLKPEDTAVYYCAADKDNTGYNYWGQGTQVTVSS
Given back: 2

Asked: Give recorded stoichiometry N (nanobody per TET12SN (cell:syringe)). nanobody Nb30 (VHH) VHH: QVQLQESGGGLVQPGGSLRLSCAASGSIFSDNDMGWYRQPPGKQREWVATITYDHVTWYADSVKGRFAISRDNAKNTVYLQMNDLKPEDTAVYYCNAVPGRRGSWGQGTQVTVSS
Given back: 2

Asked: Answer with reported stoichiometry N (nanobody per TET12SN (cell:syringe)) of nanobody Nb39 (VHH) VHH: QVQLQESGGGLVQAGGSLRLSCAASGSIFSINVMGWYRQAPGKQRELLASITSRGSTNYADSVKDRFTISRDNAKNTVYLQINSLKPEDTAVYYCNSRGWTTTRGDYDYWGQGTQVTVSS
Given back: 2

Asked: Identify stoichiometry N (nanobody per TET12SN (cell:syringe)) associated with the binder nanobody Nb26 (VHH) VHH: QVQLQESGGGLVQAGDSLRLSCAASGRTFSTYPMGWFRQAPGKEREFVAASSSRAYYADSVKGRFTISRNNAKNTVYLQMNSLKPEDTAVYYCVADSSPYYRRYDAAQDYDYWGQGTQVTVSS
Given back: 2

Asked: Return value of stoichiometry N (nanobody per TET12SN (cell:syringe)) for input nanobody Nb28 (VHH) VHH: QVQLQESGGGLVQPGGSLRLSCAAPGFRLDNYVIGWFRQAPGKEREGVSCISSSAGSTYYADSVKGRFTISRDNAKNTVYLQMNSLKPEDTAVYYCATACYSSYVTYWGQGTQVTVSS , no commentary.
Given back: 2

Asked: Give the measured stoichiometry N (nanobody per TET12SN (cell:syringe)) for nanobody Nb34 (VHH) VHH: QVQLQESGGGLVQPGGSLRLSCAASQFTFSSDWMYWVRQAPGKGLEWVSSISPGGAATAYAASVKGRFTISRDNAKNTLYLQMNSLKSEDTAVYYCSKTRAGTGRGQGTQVTVSS
Given back: 1

Data provenance is paper PMC8092592.
